System: 695427-040-R-J1-PDC complex spheroid viability
Test: Anticancer human tumor 695427-040-R-J1-PDC patient-derived colon adenocarcinoma cell line growth inhibition [POLQ]
Settings: second compound 10 µM; first compound 0.001 µM; hits give low values
Would you kindly list viability, T/C for each of these compounds?

Consider the worked cases shown below.
- compound: "Cn1ncnc1[C@H]1c2n[nH]c(=O)c3cc(F)cc(c23)N[C@@H]1c1ccc(F)cc1 + COC1C(OC(N)=O)C(O)C(Oc2ccc3c(O)c(NC(=O)c4ccc(O)c(CC=C(C)C)c4)c(=O)oc3c2C)OC1(C)C"
  measured.value: "99.6%"
- compound: "Cn1ncnc1[C@H]1c2n[nH]c(=O)c3cc(F)cc(c23)N[C@@H]1c1ccc(F)cc1 + Nc1ccc(C#CCN(C(=O)Cc2ncc(C(F)(F)F)cc2C(F)(F)F)c2ccc(F)cc2)nn1"
  measured.value: "90.9%"

Continue with the compound presented below.
Query: Entry CC[C@@]1(O)C(=O)OCc2c1cc1n(c2=O)Cc2cc3c(CN(C)C)c(O)ccc3nc2-1 + COC1C(OC(N)=O)C(O)C(Oc2ccc3c(O)c(NC(=O)c4ccc(O)c(CC=C(C)C)c4)c(=O)oc3c2C)OC1(C)C : reported viability, T/C = ?
Response: 103%

====

Would you kindly list viability, T/C for each of these molecules?
System: 695427-040-R-J1-PDC complex spheroid viability
Test: Anticancer human tumor 695427-040-R-J1-PDC cell line growth inhibition [POLQ]
Conditions: second compound 3.16 µM; first compound 10 µM; hits give low values
Procedure: Multicellular complex tumor spheroid response to Polymerase (POL) inhibitors (novobiocin, ART-558, RP6685) in combination with a variety of drugs and investigational agents in selected tumor cell lines The POL inhibitors (novobiocin, ART-558, and RP6685) were evaluated both individually and in combination with standard of care and investigational anticancer small molecules within a complex spheroid model of solid tumors. . […]
Numbers only, in %.

Consider the worked cases shown below.
- molecule: "CCc1cc2c(N3CCc4c(cc(Cn5ccnc5)cc4-c4cn(C)nc4C(F)(F)F)C3=O)ccnc2c(OC)n1 + Nc1ccc(C#CCN(C(=O)Cc2ncc(C(F)(F)F)cc2C(F)(F)F)c2ccc(F)cc2)nn1"
  test.target: "695427-040-R-J1-PDC complex spheroid viability"
  uom: "%"
  viability, T/C: 90
- molecule: "CC1COCCN1c1cc(C2(S(C)(=N)=O)CC2)nc(-c2ccnc3[nH]ccc23)n1 (stereo not given) + Cc1cccc(N(C)C(=O)C2C(O)CCN2c2nc(C)cc(C(F)(F)F)c2C#N)c1"
  test.target: "695427-040-R-J1-PDC complex spheroid viability"
  uom: "%"
  viability, T/C: 73.9
- molecule: "CNCc1ccc(-c2[nH]c3cc(F)cc4c3c2CCNC4=O)cc1 + COC1C(OC(N)=O)C(O)C(Oc2ccc3c(O)c(NC(=O)c4ccc(O)c(CC=C(C)C)c4)c(=O)oc3c2C)OC1(C)C"
  test.target: "695427-040-R-J1-PDC complex spheroid viability"
  uom: "%"
  viability, T/C: 103

Report viability, T/C for each item below.
1. CCc1cc2c(N3CCc4c(cc(Cn5ccnc5)cc4-c4cn(C)nc4C(F)(F)F)C3=O)ccnc2c(OC)n1 + COC1C(OC(N)=O)C(O)C(Oc2ccc3c(O)c(NC(=O)c4ccc(O)c(CC=C(C)C)c4)c(=O)oc3c2C)OC1(C)C
2. COc1cc2cc(C(=O)CCC(=O)O)sc2cc1OC + Cc1cccc(N(C)C(=O)C2C(O)CCN2c2nc(C)cc(C(F)(F)F)c2C#N)c1

Response:
[101, 95.4]

====

System: 695427-040-R-J1-PDC complex spheroid viability
Experiment: Anticancer human tumor 695427-040-R-J1-PDC cell line growth inhibition [POLQ];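 also: spheroids exposed to compounds for seven days; 100% = DMSO vehicle control viability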
Conditions: second compound 0.1 µM; first compound 1 µM; hits give low values
Method: Multicellular complex tumor spheroid response to Polymerase (POL) inhibitors (novobiocin, ART-558, RP6685) in combination with a variety of drugs and investigational agents in selected tumor cell lines The POL inhibitors (novobiocin, ART-558, and RP6685) were evaluated both individually and in combination with standard of care and investigational anticancer small molecules within a complex spheroid model of solid tumors. . […]
Could you please mark Y for values of viability, T/C below 70% and N for values at or above it?

- compound: "C=CCn1c(=O)c2cnc(Nc3ccc(N4CCN(C)CC4)cc3)nc2n1-c1cccc(C(C)(C)O)n1 + Nc1ccc(C#CCN(C(=O)Cc2ncc(C(F)(F)F)cc2C(F)(F)F)c2ccc(F)cc2)nn1"
  discrete.label: "N"
- compound: "CC1COCCN1c1cc(-c2ccnn2C)c2ccnc(-c3ccn[nH]3)c2n1 (stereo not given) + Nc1ccc(C#CCN(C(=O)Cc2ncc(C(F)(F)F)cc2C(F)(F)F)c2ccc(F)cc2)nn1"
  discrete.label: "Y"
- compound: "C#Cc1c(F)ccc2cc(O)cc(-c3ncc4c(N5CC6CCC(C5)N6)nc(OCC56CCCN5CC(F)C6)nc4c3F)c12 (stereo not given) + COC1C(OC(N)=O)C(O)C(Oc2ccc3c(O)c(NC(=O)c4ccc(O)c(CC=C(C)C)c4)c(=O)oc3c2C)OC1(C)C"
  discrete.label: "N"

Query: Below 70% on viability, T/C? Entry CCc1cc2c(N3CCc4c(cc(Cn5ccnc5)cc4-c4cn(C)nc4C(F)(F)F)C3=O)ccnc2c(OC)n1 + COC1C(OC(N)=O)C(O)C(Oc2ccc3c(O)c(NC(=O)c4ccc(O)c(CC=C(C)C)c4)c(=O)oc3c2C)OC1(C)C
Response: N

====

Tested on: 695427-040-R-J1-PDC complex spheroid viability
Assay: Anticancer human tumor 695427-040-R-J1-PDC cell line growth inhibition [POLQ];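 also: spheroids exposed to compounds for seven days; 100% = DMSO vehicle control viability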
Details: second compound 0.1 µM; first compound 0.316 µM; hits give low values
observed.property: viability, T/C (%)
One number for each entry, in %.

- compound: "CC1COCCN1c1cc(C2(S(C)(=N)=O)CC2)nc(-c2ccnc3[nH]ccc23)n1 (stereo not drawn) + COC1C(OC(N)=O)C(O)C(Oc2ccc3c(O)c(NC(=O)c4ccc(O)c(CC=C(C)C)c4)c(=O)oc3c2C)OC1(C)C"
  viability, T/C [%]: 104
- compound: "CCc1cc2c(N3CCc4c(cc(Cn5ccnc5)cc4-c4cn(C)nc4C(F)(F)F)C3=O)cc(C)nc2c(OC)n1 + Cc1cccc(N(C)C(=O)C2C(O)CCN2c2nc(C)cc(C(F)(F)F)c2C#N)c1"
  viability, T/C [%]: 102

Continue with the compound presented below.
Query: Entry CC1COCCN1c1cc(-c2ccnn2C)c2ccnc(-c3ccn[nH]3)c2n1 (stereo not drawn) + Cc1cccc(N(C)C(=O)C2C(O)CCN2c2nc(C)cc(C(F)(F)F)c2C#N)c1 : reported viability, T/C = ?
Response: 66.1

====

Would you kindly list viability, T/C for each of these compounds?
Tested on: 695427-040-R-J1-PDC complex spheroid viability
Test: Anticancer human tumor 695427-040-R-J1-PDC cell line growth inhibition [POLQ];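 also: spheroids exposed to compounds for seven days; 100% = DMSO vehicle control viability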
Conditions: second compound 1 µM; first compound 3.16 µM; hits give low values
One number for each entry, in %.

- compound: "CC1COCCN1c1cc(-c2ccnn2C)c2ccnc(-c3ccn[nH]3)c2n1 (stereo not given) + COC1C(OC(N)=O)C(O)C(Oc2ccc3c(O)c(NC(=O)c4ccc(O)c(CC=C(C)C)c4)c(=O)oc3c2C)OC1(C)C"
  uom: "%"
  measured.value: 46.6
- compound: "CC1COCCN1c1cc(C2(O)CC3CCC(C2)O3)c2cnn(-c3ccn[nH]3)c2n1 (stereo not given) + Nc1ccc(C#CCN(C(=O)Cc2ncc(C(F)(F)F)cc2C(F)(F)F)c2ccc(F)cc2)nn1"
  uom: "%"
  measured.value: 66.4
- compound: "O=c1[nH]cc(F)c(=O)[nH]1 + Nc1ccc(C#CCN(C(=O)Cc2ncc(C(F)(F)F)cc2C(F)(F)F)c2ccc(F)cc2)nn1"
  uom: "%"
  measured.value: 107
- compound: "C=CC(=O)N1CCN(c2nc(=O)n(-c3c(C)ccnc3C(C)C)c3nc(-c4c(O)cccc4F)c(F)cc23)C(C)C1 (stereo not given) + COC1C(OC(N)=O)C(O)C(Oc2ccc3c(O)c(NC(=O)c4ccc(O)c(CC=C(C)C)c4)c(=O)oc3c2C)OC1(C)C"
  uom: "%"
  measured.value: 119

Continue with the compound presented below.
Query: Entry CC1COCCN1c1cc(C2(S(C)(=N)=O)CC2)nc(-c2ccnc3[nH]ccc23)n1 (stereo not given) + Cc1cccc(N(C)C(=O)C2C(O)CCN2c2nc(C)cc(C(F)(F)F)c2C#N)c1 : reported viability, T/C = ?
Response: 107

====

Tested on: 695427-040-R-J1-PDC complex spheroid viability
Experiment: Anticancer human tumor 695427-040-R-J1-PDC cell line growth inhibition [POLQ];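 also: spheroids exposed to compounds for seven days; 100% = DMSO vehicle control viability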
Settings: second compound 0.316 µM; first compound 0.316 µM; hits give low values
Would you kindly list viability, T/C for each of these compounds?
Give bare numbers, in %.

- compound: "CC1COCCN1c1cc(C2(O)CC3CCC(C2)O3)c2cnn(-c3ccn[nH]3)c2n1 (stereo not given) + Cc1cccc(N(C)C(=O)C2C(O)CCN2c2nc(C)cc(C(F)(F)F)c2C#N)c1"
  test.target: "695427-040-R-J1-PDC complex spheroid viability"
  measured.value: 80.6

Report viability, T/C for each item below.
1. CC(C)n1c(=O)n(C)c2cnc3cc(F)c(-c4ccc(OCCCN5CCCCC5)nc4)cc3c21 + COC1C(OC(N)=O)C(O)C(Oc2ccc3c(O)c(NC(=O)c4ccc(O)c(CC=C(C)C)c4)c(=O)oc3c2C)OC1(C)C
2. CC1COCCN1c1cc(C2(S(C)(=N)=O)CC2)nc(-c2ccnc3[nH]ccc23)n1 (stereo not given) + Cc1cccc(N(C)C(=O)C2C(O)CCN2c2nc(C)cc(C(F)(F)F)c2C#N)c1
3. O=C(Nc1ccc(O)c(NS(=O)(=O)c2ccc(F)cc2)c1)c1ccc(-c2ccccc2)cc1 + COC1C(OC(N)=O)C(O)C(Oc2ccc3c(O)c(NC(=O)c4ccc(O)c(CC=C(C)C)c4)c(=O)oc3c2C)OC1(C)C
4. CCc1cc2c(N3CCc4c(cc(Cn5ccnc5)cc4-c4cn(C)nc4C(F)(F)F)C3=O)cc(C)nc2c(OC)n1 + Cc1cccc(N(C)C(=O)C2C(O)CCN2c2nc(C)cc(C(F)(F)F)c2C#N)c1
5. CCc1cc2c(N3CCc4c(cc(Cn5ccnc5)cc4-c4cn(C)nc4C(F)(F)F)C3=O)ccnc2c(OC)n1 + Cc1cccc(N(C)C(=O)C2C(O)CCN2c2nc(C)cc(C(F)(F)F)c2C#N)c1
6. Nc1ccn(C2OC(CO)C(O)C2(F)F)c(=O)n1 (stereo not given) + Cc1cccc(N(C)C(=O)C2C(O)CCN2c2nc(C)cc(C(F)(F)F)c2C#N)c1
7. CCc1c2c(nc3ccc(O)cc13)-c1cc3c(c(=O)n1C2)COC(=O)[C@]3(O)CC + COC1C(OC(N)=O)C(O)C(Oc2ccc3c(O)c(NC(=O)c4ccc(O)c(CC=C(C)C)c4)c(=O)oc3c2C)OC1(C)C

Response:
[110, 100, 110, 93.2, 92.8, 71.2, 68.8]

Report viability, T/C for each item below.
1. COc1cc(C2c3cc4c(cc3C(OC3OC5COC(C)OC5C(O)C3O)C3COC(=O)C23)OCO4)cc(OC)c1O (stereo not given) + Cc1cccc(N(C)C(=O)C2C(O)CCN2c2nc(C)cc(C(F)(F)F)c2C#N)c1
2. C#Cc1c(F)ccc2cc(O)cc(-c3ncc4c(N5CC6CCC(C5)N6)nc(OCC56CCCN5CC(F)C6)nc4c3F)c12 (stereo not given) + Cc1cccc(N(C)C(=O)C2C(O)CCN2c2nc(C)cc(C(F)(F)F)c2C#N)c1

Response:
[102, 97.8]
